Assay System: truncated human PTH-1 receptor, hΔNt (Homo sapiens)
Construct: expressed in transfected cells; host or cells: COS-7, transient, pcDNA-1 plasmid derived from HK-WT
Sequence (Q03431 with tags, fused parts or gaps limits assumed): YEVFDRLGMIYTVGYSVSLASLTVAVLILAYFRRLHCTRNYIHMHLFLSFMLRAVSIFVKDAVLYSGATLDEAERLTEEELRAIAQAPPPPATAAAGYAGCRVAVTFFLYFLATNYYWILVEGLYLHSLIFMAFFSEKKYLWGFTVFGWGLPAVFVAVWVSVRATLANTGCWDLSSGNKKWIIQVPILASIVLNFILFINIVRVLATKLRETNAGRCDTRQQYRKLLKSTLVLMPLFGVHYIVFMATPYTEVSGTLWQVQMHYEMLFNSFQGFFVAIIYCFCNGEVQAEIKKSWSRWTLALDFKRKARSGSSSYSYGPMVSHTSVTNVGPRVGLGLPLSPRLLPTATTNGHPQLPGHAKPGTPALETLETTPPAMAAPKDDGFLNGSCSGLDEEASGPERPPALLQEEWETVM
Assay Text: cAMP stimulation in COS-7 cells transiently transfected with truncated receptor hDeINt
Format: cell-based
Study Conditions: COS-7 cells, hDeINt; Emax constrained to peptide #7 (20 μM) response
No end group written: not given here.
Emax overview

Recorded Emax, per entry:
| Substance | Assay System | Emax |
| --- | --- | --- |
| AVAEIQLMHARAKHLNSMERVEWLRKKLQDVHNY-NH2 [Peptide #7] | truncated human PTH-1 receptor, hΔNt (Homo sapiens) | 251 ± 39 picomole/well |
| AVAEIQLMHAR-NH2 [compound 6, AlaValAlaGluIleGlnLeuMetHisAlaArg-amide] | truncated human PTH-1 receptor, hΔNt (Homo sapiens) | 243 ± 63 picomole/well |
| AVAEIQLMHARAKH-NH2 [Peptide #1] | truncated human PTH-1 receptor, hΔNt (Homo sapiens) | 250 ± 61 picomole/well |

Next substance, please.
IN: Which Emax reading was recorded for the substance AVSEIQLMHNLGKH-NH2 [native rPTH(1-14), AVSEIQLMHNLGKH, reference compound] ?
OUT: 222 ± 31 picomole/well

====

Each entry below lists one item and its recorded Emax value.
Assay System: WT hPTH-1 receptor (Homo sapiens, UniProt Q03431)
Construct: encoding the intact hPTH-1 receptor (HK-WT); expressed in transfected cells; host or cells: COS-7, transient, pcDNA-1 plasmid
Assay Text: cAMP stimulation in COS-7 cells transiently transfected with WT hPTH-1 receptor
Assay type: cell-based
Study Conditions: COS-7 cells, WT hPTH-1 receptor
No end group written: not given here.
Respond numerically; units are picomole/well and should not be typed.

Example substances with recorded Emax:
| Substance | Recorded Result |
| --- | --- |
| AVSEIQLMHNLGKH-NH2 [native rPTH(1-14), AVSEIQLMHNLGKH, reference compound] | 221 |
| AVAEIQLMHAR-NH2 [compound 6, AlaValAlaGluIleGlnLeuMetHisAlaArg-amide] | 238 |
| AVAEIQLMHARAKHLNSMERVEWLRKKLQDVHNY-NH2 [Peptide #7] | 222 |

Then there is this substance:
IN: What Emax value was documented for this substance, AVAEIQLMHARAKH-NH2 [Peptide #1] ?
OUT: 243

====

Assay System: rat PTH-1 receptor (endogenous, ROS 17/2.8 cells) (Rattus norvegicus, UniProt P25961)
Construct: The rat osteoblastic cell line ROS 17/2.8; endogenous in cells; host or cells: ROS 17/2.8 rat osteoblastic cells
Sequence (P25961 27-591): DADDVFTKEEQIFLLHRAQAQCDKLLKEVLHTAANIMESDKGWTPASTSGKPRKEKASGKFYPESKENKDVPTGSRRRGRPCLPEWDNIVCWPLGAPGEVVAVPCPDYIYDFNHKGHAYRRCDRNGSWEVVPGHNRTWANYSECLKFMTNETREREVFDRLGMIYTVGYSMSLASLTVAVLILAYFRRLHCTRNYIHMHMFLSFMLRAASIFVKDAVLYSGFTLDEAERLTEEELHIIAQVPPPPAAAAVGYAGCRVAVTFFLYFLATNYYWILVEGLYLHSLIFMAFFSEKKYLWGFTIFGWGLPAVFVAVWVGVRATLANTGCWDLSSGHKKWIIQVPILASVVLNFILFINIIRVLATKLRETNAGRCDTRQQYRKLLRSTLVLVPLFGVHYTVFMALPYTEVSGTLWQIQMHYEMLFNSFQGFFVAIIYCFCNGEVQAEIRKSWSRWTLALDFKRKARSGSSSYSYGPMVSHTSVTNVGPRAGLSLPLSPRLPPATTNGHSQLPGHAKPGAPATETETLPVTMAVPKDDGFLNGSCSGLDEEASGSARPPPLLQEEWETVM
Assay Text: cAMP response in osteoblastic ROS 17/2.8 cells
Format: cell-based
Study Conditions: ROS 17/2.8 cells
No end group written: not given here.
Readout Name: Emax (picomole/well)
Numeric answer only, unit picomole/well assumed.

IN: Given the entry AVAEIQLMHARAKH-NH2 [Peptide #1] , report its measured Emax.
OUT: 395

IN: Can you share its Emax? I mean this substance: AVAEIQLMHAR-NH2 [compound 6, AlaValAlaGluIleGlnLeuMetHisAlaArg-amide]
OUT: 377

IN: What value of Emax has been reported for the following substance? AVSEIQLMHNLGKH-NH2 [native rPTH(1-14), AVSEIQLMHNLGKH, reference compound]
OUT: 376

IN: Given AVAEIQLMHARAKW-NH2 [Peptide #2] , state its recorded Emax.
OUT: 382

IN: Please look up its Emax: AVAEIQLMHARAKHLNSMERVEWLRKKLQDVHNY-NH2 [Peptide #7]
OUT: 395
